biological target: furin, P09958; experiment: furin cleavage Z-score vs untreated control; higher = more cleavage, active = 3.5 or more, inactive = 1 or less, 8 variable residues between constant flanks; settings: 7.5 min;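 also: purified furin at 1:10 enzyme:substrate in 50 mM HEPES pH 7.5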
Sequence (P09958 whole entry): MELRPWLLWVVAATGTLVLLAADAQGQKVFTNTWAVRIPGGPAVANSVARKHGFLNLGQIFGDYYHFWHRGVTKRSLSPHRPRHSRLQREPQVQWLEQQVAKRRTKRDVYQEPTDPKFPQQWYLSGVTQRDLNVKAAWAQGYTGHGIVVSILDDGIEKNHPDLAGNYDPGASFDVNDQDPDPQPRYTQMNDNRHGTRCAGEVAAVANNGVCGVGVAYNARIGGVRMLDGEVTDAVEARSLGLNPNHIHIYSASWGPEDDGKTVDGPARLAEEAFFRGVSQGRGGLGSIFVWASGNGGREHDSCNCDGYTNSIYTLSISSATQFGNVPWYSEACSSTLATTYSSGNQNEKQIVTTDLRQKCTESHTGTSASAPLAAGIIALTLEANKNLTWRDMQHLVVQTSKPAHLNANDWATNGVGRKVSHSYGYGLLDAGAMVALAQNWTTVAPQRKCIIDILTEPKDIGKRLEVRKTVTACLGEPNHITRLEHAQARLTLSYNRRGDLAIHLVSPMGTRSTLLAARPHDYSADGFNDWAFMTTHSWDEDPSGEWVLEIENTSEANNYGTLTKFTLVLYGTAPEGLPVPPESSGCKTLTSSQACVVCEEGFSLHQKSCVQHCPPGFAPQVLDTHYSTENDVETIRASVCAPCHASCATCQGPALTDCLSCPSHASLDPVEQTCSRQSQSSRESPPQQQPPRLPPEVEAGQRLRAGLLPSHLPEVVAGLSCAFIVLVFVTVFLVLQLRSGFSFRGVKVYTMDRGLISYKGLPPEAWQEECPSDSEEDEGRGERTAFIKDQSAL
The list shows a part of the results. How many sequences the whole screen found active is unknown.
The reply should be one of these categories: YES for active, NO for inactive

[[record]]
seq_text = "CAVLEDGVNYAGNASASA [HC239]"
group_label = "NO"

[[record]]
seq_text = "CAARVCSCLWAGNASASA [HC525]"
group_label = "NO"

[[record]]
seq_text = "CARMIRRRRYAGNASASA [FS-1652]"
group_label = "YES"

[[record]]
seq_text = "CAKRWRRRRYAGNASASA [FS-1350]"
group_label = "YES"

[[record]]
seq_text = "CAVLARMMRPAGNASASA [FS-966]"
group_label = "NO"

[[record]]
seq_text = "CADPLRPRREAGNASASA [FS-122]"
group_label = "YES"


**Query** Which outcome was assigned to CAVFTDNSSPAGNASASA [HC765] in this test?
**Result** NO

**Query** Which outcome was assigned to CAVVCCSMRYAGNASASA [HC2073] in this test?
**Result** NO

**Query** Which outcome was assigned to CARMIRTNEAAGNASASA [FS-3000] in this test?
**Result** NO

**Query** Which outcome was assigned to CARRRRPERVAGNASASA [FS-3064] in this test?
**Result** NO

**Query** Which outcome was assigned to CARRPRFKDIAGNASASA [FS-3058] in this test?
**Result** NO
